test system: CP247; assay: qHTS profiling for inhibitors of Plasmodium falciparum proliferation (AID 504749); also: nearly all actives have a fitted effect of over 60% in size; details: P. falciparum in erythrocytes, SYBR Green DNA, 72 h; series mostly up to 28.7 µM
Results filed as inconclusive are left out. Active and inactive are the calls of the source. Calls follow the shape of the dose curve; as a rule, active = well fitted inhibition curve with a large enough effect; inconclusive = small, poorly fitted or top-dose-only effect; inactive = flat fitted curve, though single readings scatter.
PARAMETER_MEASURED: outcome

* COP(=O)(OC)OC=C(Cl)Cl | inactive
* CC(C)C(Br)C(=O)NC(N)=O (stereo unspecified) | inactive
* C[C@H]1C(=O)O[C@@H]2CCN3CC=C(COC(=O)[C@](C)(O)[C@]1(C)O)[C@H]23 | inactive
* COP(=O)(OC)C(O)C(Cl)(Cl)Cl (stereo unspecified) | inactive
* CCNc1nc(Cl)nc(NCC)n1 | inactive
* CN1C[C@@H](NS(=O)(=O)N(C)C)C[C@@H]2c3cccc4c3c(cn4C)C[C@H]21 | inactive

###

system: 3D7; test: qHTS profiling for inhibitors of Plasmodium falciparum proliferation (AID 504749); also: nearly all actives have a fitted effect of over 60% in size; settings: P. falciparum in erythrocytes, SYBR Green DNA, 72 h; series mostly up to 28.7 µM
Inconclusive results are not listed. Activity calls are given as the source filed them. Calls follow the shape of the dose curve; as a rule, active = well fitted inhibition curve with a large enough effect; inconclusive = small, poorly fitted or top-dose-only effect; inactive = flat fitted curve, though single readings scatter.
Labels: active, inactive

* COC(=O)C1=CCCN(C)C1 | inactive
* C[N+]1(CCC(C(N)=O)(c2ccccc2)c2ccccc2)CCCCC1 | inactive
* CNC(=O)NC(O)C(Cl)(Cl)Cl (stereo unspecified) | inactive
* C[C@]12Cc3nonc3C[C@@H]1CC[C@@H]1[C@@H]2CC[C@@]2(C)[C@H]1CC[C@]2(C)O | inactive
* Clc1ccc(CO/N=C(\Cn2ccnc2)c2ccc(Cl)cc2Cl)c(Cl)c1 | active
* CCCCCCCCC(=O)NCc1ccc(O)c(OC)c1 | inactive

###

experiment: Primary qHTS for inhibitors of MERS-S pseudo-typed particle cell entry (AID 1479149); details: MERS-S pseudotyped particle entry, luciferase; series mostly up to 57.1 µM; also: nearly all actives have a fitted effect of over 60% in size
Results filed as inconclusive are left out. Active and inactive are the calls of the source. Calls follow the shape of the full dose curve.
Labels: active, inactive

• O=C(Nc1ccc([N+](=O)[O-])cc1)Nc1ccc([N+](=O)[O-])cc1 = inactive
• Cc1ccc(/C=N/n2c(-c3ccccc3)csc2=S)cc1 = inactive
• O=C(OCc1ccccc1)c1ccc(O)cc1 = inactive
• COc1ccc(CCN2CCC(Nc3nc4ccccc4n3Cc3ccc(F)cc3)CC2)cc1 = active
• CN(C)CCn1nnnc1SCC1=C(C(=O)O)N2C(=O)[C@@H](NC(=O)Cc3csc(N)n3)[C@H]2SC1 = inactive
• CC(C)(C)NCC(O)COc1cccc2c1CCC(=O)N2 (configuration not stated) = inactive
• CCN1C(=O)c2ccccc2C1Nc1ccc(OCCN2CCCCC2)cc1 (configuration not stated) = inactive
• CCCCN1CCCC[C@H]1C(=O)Nc1c(C)cccc1C = inactive
• CC(Oc1c(Cl)cccc1Cl)C1=NCCN1 (configuration not stated) = inactive
• O=C(O)Cc1ccccc1 = inactive
• CCCN(CCC)C(=O)C(CCC(=O)O)NC(=O)c1ccccc1 (configuration not stated) = inactive
• OC[C@H]1O[C@@H](n2cnc3c(=S)nc[nH]c32)[C@H](O)[C@@H]1O = inactive
• CC1(C)O[C@@H]2C[C@H]3[C@@H]4C[C@H](F)C5=CC(=O)CC[C@]5(C)[C@H]4[C@@H](O)C[C@]3(C)[C@]2(C(=O)CO)O1 = inactive
• CC(C)NCC(O)COc1ccc(COCCOC(C)C)cc1 (configuration not stated) = inactive
• CCN(CC)C(=O)N1CCN(C)CC1 = inactive
• Cc1cccc(C)c1NC(=O)C(C)N (configuration not stated) = inactive
• N[C@H](C(=O)O)[C@@H](O)c1ccc(O)c(O)c1 = inactive
• CC(=C(CCOC(=O)C(C)C)SSC(CCOC(=O)C(C)C)=C(C)N(C=O)Cc1cnc(C)nc1N)N(C=O)Cc1cnc(C)nc1N = inactive
• CC1(C)O[C@@H]2C[C@H]3[C@@H]4C[C@H](F)C5=CC(=O)C=C[C@]5(C)[C@H]4[C@@H](O)C[C@]3(C)[C@]2(C(=O)CO)O1 = inactive
• CCOc1ccc2nc(S(N)(=O)=O)sc2c1 = inactive
• N[C@H]1CN(c2c(F)cc3c(=O)c(C(=O)O)cn(C4C[C@@H]4F)c3c2Cl)CC12CC2 (some centres not stated) = inactive
• CN1CCCN=C1/C=C/c1cccs1 = inactive

###

test system: ECU; test: qHTS profiling for inhibitors of Plasmodium falciparum proliferation (AID 504749); also: nearly all actives have a fitted effect of over 60% in size; details: P. falciparum in erythrocytes, SYBR Green DNA, 72 h; series mostly up to 28.7 µM
Results filed as inconclusive are left out. The source made the active and inactive calls. Calls come from the whole dose curve; as a rule, active = well fitted inhibition curve with a large enough effect; inconclusive = small, poorly fitted or top-dose-only effect; inactive = flat fitted curve, though single readings scatter.
Labels: yes (active), no (inactive)

- NC(=O)CN1CCCC1=O: no
- C=CCOC(Cn1ccnc1)c1ccc(Cl)cc1Cl (stereo not drawn): yes
- COc1ccc(CN2CCNCC2)c(OC)c1OC: no
- O=C(O)c1nn(Cc2ccc(Cl)cc2Cl)c2ccccc12: no
- CCCCCCCCCCCC[N+](C)(C)CCOc1ccccc1: yes
- CN1C(=O)[C@@H](NC(=O)c2cc3ccccc3[nH]2)N=C(c2ccccc2)c2ccccc21: yes
- Cc1ccc(N=CN(C)C=Nc2ccc(C)cc2C)c(C)c1: no
- C[C@]12C=CC(=O)C=C1CC[C@@H]1[C@@H]2CC[C@@]2(C)[C@H]1CC[C@]2(C)O: no
- CCCCCCCCC(=O)NCc1ccc(O)c(OC)c1: no
- Cc1c(Cl)c(=O)oc2cc(OP(=O)(OCCCl)OCCCl)ccc12: yes
- NC(=O)OCCCc1ccccc1: no
- CC(C)NCC(O)c1ccc(N)c(C#N)c1 (stereo not drawn): no
- CC(C)(C)OC(=O)c1ncn2c1[C@@H]1CCCN1C(=O)c1c(Br)cccc1-2: no
- C[C@]12Cc3nonc3C[C@@H]1CC[C@@H]1[C@@H]2CC[C@@]2(C)[C@H]1CC[C@]2(C)O: no
- CCC1(CC)C(=O)NC(=O)NC1=O: no
- CCC(=O)O[C@H]1CC[C@H]2[C@@H]3CCC4=CC(=O)CC[C@]4(C)[C@H]3CC[C@]12C: no
- O=C(CCCN1CCC(n2c(=O)[nH]c3ccccc32)CC1)c1ccc(F)cc1: yes
- CCN(Cc1ccc(Cl)nc1)/C(=C/[N+](=O)[O-])NC: no
- C[N+]1(CCC(C(N)=O)(c2ccccc2)c2ccccc2)CCCCC1: no
- O=c1n(Cl)c(=O)n(Cl)c(=O)n1Cl: no
- COC(=O)C1=CCCN(C)C1: no
- CCNc1nc(Cl)nc(NCC)n1: no
- CCOC(=O)NC(O)C(Cl)(Cl)Cl (stereo not drawn): no
- CN1C(=O)CN=C(c2ccccc2)c2cc([N+](=O)[O-])ccc21: no
- COc1ccc(C(=O)N2CCCC2=O)cc1: no
- CNC(=O)NC(O)C(Cl)(Cl)Cl (stereo not drawn): no
- COP(=O)(OC)OC=C(Cl)Cl: no
- CNC(=O)Oc1cccc2ccccc12: no
- ClC1=C(Cl)C2(Cl)C(CBr)CC1(Cl)C2(Cl)Cl (stereo not drawn): no
- CN1C[C@@H](NS(=O)(=O)N(C)C)C[C@@H]2c3cccc4c3c(cn4C)C[C@H]21: no
- COP(=S)(OC)Oc1ccc(Sc2ccc(OP(=S)(OC)OC)cc2)cc1: no
- OC(O)C(Cl)(Cl)Cl: no
- CCN(CC)C(C)C(=O)c1ccccc1 (stereo not drawn): no

###

assay: qHTS of pediatric cancer cell lines to identify multiple opportunities for drug repurposing: Confirmatory screen for control Hh wild type fibroblast cells (AID 1347121); settings: viability qHTS; series mostly up to 45.9 µM; also: nearly all actives have a fitted effect of over 70% in size; also: potency is read from the fitted curve at half-maximal effect
Records with an inconclusive call do not appear. Active and inactive are the calls of the source. Calls come from the whole dose curve; as a rule, active = well fitted cell-killing curve with a large enough effect; inconclusive = small, poorly fitted or top-dose-only effect, or effect the other way; inactive = flat fitted curve, though single readings scatter.
PARAMETER_MEASURED: Potency

- CC[n+]1c(-c2ccccc2)c2cc(N)ccc2c2ccc(N)cc21: 9.27 µM (active)
- CN(C)C(=S)SSC(=S)N(C)C: inactive
- C[C@@H]1C[C@@H]([C@H](O)CC2CC(=O)NC(=O)C2)C(=O)[C@@H](C)C1: inactive
- O=C(O)Cc1ccccc1: inactive
- CCc1ccc(C2CCNCC2)cc1: inactive
- COC(=O)C1=CCCN(C)C1: inactive
- CN1[C@@H]2CC[C@H]1CC(OC(=O)c1cc(Cl)cc(Cl)c1)C2 (stereo partly drawn): inactive
- Cc1ccc([N+](=O)[O-])[c]2c1[O][Hg]2: 16.5 µM (active)

###

assay: Primary qHTS for inhibitors of MERS-S pseudo-typed particle cell entry (AID 1479149); details: MERS-S pseudotyped particle entry, luciferase; series mostly up to 57.1 µM; also: nearly all actives have a fitted effect of over 60% in size
Records with an inconclusive call do not appear. Calls of active or inactive are those of the source. Calls follow the shape of the full dose curve.
Labels: Y for active, N for inactive

• O=C(O)c1cccc(-c2noc(-c3ccccc3F)n2)c1 = N
• CC(CNC1CCCCC1)OC(=O)c1ccccc1 (stereo unspecified) = N
• CN1CCC(=C2c3ccccc3CCc3sccc32)CC1 = Y
• C#C[C@]1(OC(C)=O)CC[C@H]2[C@@H]3CCC4=C/C(=N/O)CC[C@@H]4[C@H]3CC[C@@]21CC = N
• CC[C@]1(O)CC[C@H]2[C@@H]3CCC4=CCCC[C@@H]4[C@H]3CC[C@@]21C = N
• Oc1ccc(C(O)CNCCCCCCNCC(O)c2ccc(O)c(O)c2)cc1O (stereo unspecified) = N
• Nc1ccc(S(=O)(=O)Nc2nccs2)cc1 = N
• Cc1cc2nc3ccc(=[N+](C)C)cc-3sc2cc1N = Y
• c1ccc2[nH]c(-c3cscn3)nc2c1 = N
• NC(=O)C1(N2CCCCC2)CCN(CCCN2c3ccccc3CCc3ccc(Cl)cc32)CC1 = Y
• CCOCCn1c(N2CCCN(C)CC2)nc2ccccc21 = N
